- Tested on: MS2 coat protein
- assay_procedure: apparent KD of MS2 coat protein; designed switch direction (-1 OFF switch, 1 ON switch): 1; higher = weaker reporter binding
- study_conditions: Eterna round: R98; input ligand: FMN 200 uM
Label 1.0 when apparent KD of MS2 coat protein >= 100 nM; otherwise 0.0.

Examples with answers:
// inclusive: apparent KD of MS2 coat protein at least 100 nM? input: GCCAUCGCAUGAGGAUAUGGACAGCUUUGCUGUCCAGAAGGCAUGUCAUAAGACAUGAGGAUCACCCAUGUAGUUAAGAUGGCA [Mat - Same State NG 1 - JL Mod - D15]
0.0

Let us now turn to CAUAGGUGUACAUGAGGAUCACCCAUGUCCCUGGUCAUUGGACAGGAUAUAUGGGCGGUCGCUUCAUAGAAGGGUUAAAUGGGA [Orenatis]
1.0

Next up: CCUACCAACACAGGAUAUGCUAUCCUUUGGGUAGCAGAAGGGUGAAACAUGAGGAUCACCCAUGUGGUGGGACCCGGUGACGGG [Mat - Same State NG 1 - Eli mod - D70]
1.0

Subsequent entry: CCAGAGAUAUGAGGAUAUCGAGUGGAUAACACUCGAGAAGGCAUGUGAAAACAUGAGGAUCACCCAUGUGAUCAAUACUCUGGA [Same State NG1 - WT Aptamer 2D]
0.0

Entry GGCGAUCAGGCUAACAUGAGGAUCACCCAUGUGGACUCAUGGUAGGAUAUGCUGUACAAAGUACAGCAGAAGGGCCGGAGAGCC [Mat - Same State NG 3 - JL Mod - D2] please
1.0

Next: UUUACAUGAGGAUCACCCAUGUUUAGAAAGUUAAUUAUAAGUGAGGAUAUAUAAUUUAUAAAAUAGUAGAAGGCACUGGGUAUU [JR_SSNG3_Sub079]
0.0

---
Answer whether apparent KD of MS2 coat protein of UGACGGCACACAGGAUAUAGUGCACAAAGUGUACUAGAAGGGUGAGCACUCGUCCGGGCACAUGAGGAUCACCCAUGUCGUCGA [Onusar] is greater than or equal to 100 nM.
1.0

Could you do the same for GGACAUCCCACAGGAUAUGCUGGACUUUGUCCAGCAGAAGGGUGACAUGAGGAUCACCCAUGUAAUAGGAUGUCCAUAUUUAAU [Denovo 38] , please?
0.0

Same question for AUAGCAUACCGAGGAUAUUCAUAUAAUAAAUAAACAUGAGGAUCACCCAUGUGGCGAAAGCCUAGGGAGAAGGCGGAAUGCUAG [salish99_SSNG2_r2_101] please.
0.0

Moving on to the next sequence: CCGGUGUAUGCAGGAUAUGAGAGGAGGUGACCAUCAGAAGGGCAAGCCCACAUGAGGAUCACCCAUGUACUAAGAGACAAGGCC [Tienlaonso]
0.0

* * *

Answer each item with its documented apparent KD of K4 kissing-loop reporter.
- Test system: K4 kissing-loop RNA reporter;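 further: bound reporter read as fluorescence of individual clusters on recovered sequencing chips by microscopy, with normalized cluster intensities fitted with a binding model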
- assay_procedure: apparent KD of K4 kissing-loop reporter; higher = weaker reporter binding
- study_conditions: Eterna round: R107; input ligand: FMN 200 uM
Put your answer as a value accompanied by its unit after it.

Query (sequence): AUCUAUGAGCGAGGAUAUGCAUGACGCGAGUGAUGUUCGCGAUGUGGGCGUGAUUAGUAAUAUGAAGCAGAAGGCGCACUCAUGA [Exclusion - FMW B / A] ; field requested: apparent KD of K4 kissing-loop reporter
216 nM

Entry AAAUUUAAUAUAUUUAAUUAAUUAUGUGAUACCAGACAUUUAUAAGUCCCUUGGCAGCACUUUGCAGUGAUGUUGCAUAUAAUAA [JR_SSTheophyA_Sub013] please
89 nM

Would you kindly repeat that for CACCGGACGAAAGAUACCAGUUACUAUAUUAGGGUGCCUUGGCUAGUGAUGUUAGAGAGUAACCCUUGGCAGCUUUGGUACUUAU [theeternabot_exclusion_KL_Theo_B_21] ?
380 nM

Lookup UUAAUAAUUCAAGGAUAUGUUUUCUAUUUCGAGUGAUGUUCGGAAUUAAUAAAUUUAAAAGAUUAUACAGAAGGUGAUAGAUAGU [Cynwulf-mod#3]
89.5 nM

Another sequence to check: GAGCCAGAAGUUGCUGCGGGUUUCAGAGAUACCAGCCGUAUUGUAGGCCCUUGGCAGCUCGAGUGAUGUUCGAGCCGCUUCUAGC [Inma]
128 nM

Another sequence to check: AAUGGAGGCUGAAGGAGCGCCGCCAGUGAUGUUGGGAGUUAGAUACCAGUGAUGUUGGGCCGGCAGGUAGGUCGCGGUUUUUAUU [Exclusion Arginine B Gf 16]
186 nM

New cases:
Would you mind telling me what apparent KD of K4 kissing-loop reporter value was observed for GAAGGUCAAAGACCUUCGUGCACACCUGAUACCAGUCGCGAAAGCGACCCUUGGCAGCAGGGCAGUGAUGUUGCCAGUGCACAAA [Omei KL Theo A SS A v5] ?
194 nM
